- Test system: Adult houseflies
- ASSAY_OVERVIEW: Knock-down test on adult houseflies, oil solution sprayed into a cubic chamber
- Assay type: in vivo
- SETUP_CONDITIONS: 0.7 ml of 0.025% oil solution sprayed in 70 cm cubic chamber; 5 male and 5 female adult houseflies; counted for 10 minutes; average of two repeats
MEASURED_QUANTITY: KT50 (time for knocking down half of the tested insects) (min)

{"COMPOUND": "COCc1c(F)c(F)c(COC(=O)C2C(/C=C(\\C#N)C(=O)OC(C)(C)C)C2(C)C)c(F)c1F (stereo not shown)", "CMP": "=", "ASSAY_RESULT": 3.4}
{"COMPOUND": "CCCOC(=O)/C(C#N)=C/C1C(C(=O)OCc2c(F)c(F)c(COC)c(F)c2F)C1(C)C (stereo not shown)", "CMP": "=", "ASSAY_RESULT": 4.1}
{"COMPOUND": "COCc1c(F)c(F)c(COC(=O)C2C(/C=C(\\C#N)C(=O)OC(C)C)C2(C)C)c(F)c1F (stereo not shown)", "CMP": "=", "ASSAY_RESULT": 1.5}
{"COMPOUND": "COCc1c(F)c(F)c(COC(=O)C2C(/C=C(\\F)C(=O)OC)C2(C)C)c(F)c1F (stereo not shown) [Comparative Compound, reference compound]", "CMP": ">", "ASSAY_RESULT": 10}
{"COMPOUND": "CCOC(=O)/C(C#N)=C/C1C(C(=O)OCc2c(F)c(F)c(COC)c(F)c2F)C1(C)C (stereo not shown)", "CMP": "=", "ASSAY_RESULT": 1.5}
{"COMPOUND": "C=CCOC(=O)/C(C#N)=C/C1C(C(=O)OCc2c(F)c(F)c(COC)c(F)c2F)C1(C)C (stereo not shown)", "CMP": "=", "ASSAY_RESULT": 4.3}
{"COMPOUND": "COCc1c(F)c(F)c(COC(=O)C2C(/C=C(\\C#N)C(=O)OC)C2(C)C)c(F)c1F (stereo not shown)", "CMP": "=", "ASSAY_RESULT": 1.9}
